# SYSTEM_UNDER_TEST: Neurogenic locus notch homolog protein 2 (Homo sapiens) (UniProt Q04721)
# Sequence (Q04721 whole entry, looked up): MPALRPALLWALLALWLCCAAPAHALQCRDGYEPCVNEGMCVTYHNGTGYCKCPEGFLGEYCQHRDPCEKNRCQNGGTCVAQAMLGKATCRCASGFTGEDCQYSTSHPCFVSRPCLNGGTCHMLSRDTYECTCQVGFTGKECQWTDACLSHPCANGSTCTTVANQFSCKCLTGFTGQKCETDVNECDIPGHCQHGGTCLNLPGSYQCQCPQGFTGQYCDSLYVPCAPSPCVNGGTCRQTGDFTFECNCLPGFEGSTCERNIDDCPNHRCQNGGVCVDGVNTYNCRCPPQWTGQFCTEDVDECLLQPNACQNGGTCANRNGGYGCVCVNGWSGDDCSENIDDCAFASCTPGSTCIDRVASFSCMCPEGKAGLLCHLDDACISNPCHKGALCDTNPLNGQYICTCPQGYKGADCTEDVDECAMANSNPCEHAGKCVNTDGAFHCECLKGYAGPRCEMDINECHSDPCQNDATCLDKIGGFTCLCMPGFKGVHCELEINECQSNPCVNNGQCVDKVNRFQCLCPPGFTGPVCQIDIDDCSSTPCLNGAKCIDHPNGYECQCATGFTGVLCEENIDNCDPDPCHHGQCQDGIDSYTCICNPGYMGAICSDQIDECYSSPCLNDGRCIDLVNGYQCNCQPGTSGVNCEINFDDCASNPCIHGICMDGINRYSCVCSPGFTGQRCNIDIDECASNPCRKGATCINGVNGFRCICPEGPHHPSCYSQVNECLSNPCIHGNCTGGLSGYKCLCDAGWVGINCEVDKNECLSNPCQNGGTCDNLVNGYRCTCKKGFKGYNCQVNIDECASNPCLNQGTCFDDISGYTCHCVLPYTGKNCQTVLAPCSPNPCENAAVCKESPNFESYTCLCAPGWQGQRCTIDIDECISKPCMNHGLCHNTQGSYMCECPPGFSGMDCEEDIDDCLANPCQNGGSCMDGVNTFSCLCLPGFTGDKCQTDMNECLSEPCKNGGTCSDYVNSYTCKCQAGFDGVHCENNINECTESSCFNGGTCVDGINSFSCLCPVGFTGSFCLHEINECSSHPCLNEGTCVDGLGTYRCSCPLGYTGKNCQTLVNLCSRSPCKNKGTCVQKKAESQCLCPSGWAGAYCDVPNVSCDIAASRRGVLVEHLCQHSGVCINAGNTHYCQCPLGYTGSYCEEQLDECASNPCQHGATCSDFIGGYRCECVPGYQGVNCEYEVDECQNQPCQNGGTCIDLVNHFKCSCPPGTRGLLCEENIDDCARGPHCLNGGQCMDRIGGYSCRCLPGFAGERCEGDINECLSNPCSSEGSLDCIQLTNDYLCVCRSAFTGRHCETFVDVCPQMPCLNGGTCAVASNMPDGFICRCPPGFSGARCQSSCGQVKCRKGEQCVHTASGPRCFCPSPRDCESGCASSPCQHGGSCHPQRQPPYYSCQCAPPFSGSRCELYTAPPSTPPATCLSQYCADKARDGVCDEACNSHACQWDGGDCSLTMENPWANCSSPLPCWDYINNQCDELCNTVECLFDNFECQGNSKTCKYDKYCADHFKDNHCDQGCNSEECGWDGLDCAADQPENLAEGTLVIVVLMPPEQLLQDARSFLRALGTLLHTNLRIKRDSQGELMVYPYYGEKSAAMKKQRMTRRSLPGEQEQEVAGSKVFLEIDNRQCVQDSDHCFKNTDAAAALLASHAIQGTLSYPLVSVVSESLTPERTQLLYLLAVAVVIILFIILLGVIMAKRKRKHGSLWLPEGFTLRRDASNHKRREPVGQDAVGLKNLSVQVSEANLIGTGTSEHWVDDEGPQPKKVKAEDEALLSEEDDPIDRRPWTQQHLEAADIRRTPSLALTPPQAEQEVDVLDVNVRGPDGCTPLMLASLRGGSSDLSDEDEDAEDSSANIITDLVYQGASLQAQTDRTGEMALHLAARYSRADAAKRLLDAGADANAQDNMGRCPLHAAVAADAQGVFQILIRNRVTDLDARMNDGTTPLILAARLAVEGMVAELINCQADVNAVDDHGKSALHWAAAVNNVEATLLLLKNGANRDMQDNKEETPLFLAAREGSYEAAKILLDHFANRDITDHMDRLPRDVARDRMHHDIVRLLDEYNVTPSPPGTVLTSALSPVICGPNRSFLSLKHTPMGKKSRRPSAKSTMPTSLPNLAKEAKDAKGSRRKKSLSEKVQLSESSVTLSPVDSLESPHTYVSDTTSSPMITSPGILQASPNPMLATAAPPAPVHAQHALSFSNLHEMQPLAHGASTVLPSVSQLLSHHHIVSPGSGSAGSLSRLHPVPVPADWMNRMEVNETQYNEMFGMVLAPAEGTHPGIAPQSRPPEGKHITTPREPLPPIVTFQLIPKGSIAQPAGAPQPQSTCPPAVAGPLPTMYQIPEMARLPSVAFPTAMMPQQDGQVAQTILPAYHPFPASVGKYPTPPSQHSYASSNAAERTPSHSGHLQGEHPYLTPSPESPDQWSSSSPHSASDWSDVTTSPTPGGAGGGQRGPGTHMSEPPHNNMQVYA
# ASSAY_COMMENT: Notch2 binders on small-molecule microarrays, primary screen, biochemical, small-molecule microarray, 635 nm fluorescence, stem cell growth factors (AID 1073)
# COND: Notch2 binding, higher = more signal
Entries and their composite z-score
Give a plain numeric answer without units written out.

Check out these entries, answers already filled in.
N#Cc1ccc(NN2C(C(O)c3cccc4ccccc34)C=CC3C(=O)N(c4ccccc4)C(=O)C32)cc1 (stereo not drawn); 1.65
COC(=O)[C@H](C)NC(=O)CCC1CC(OC(=O)NCCc2ccc(F)cc2)CC2(CCCC(COC(=O)NCCc3ccc(Cl)cc3)O2)O1 (stereo partly drawn); 1.15
O=C1CCCC=C1C(O)CCOCc1ccccc1 (stereo not drawn); -0.175
COCC1=C2[C@@H](CCc3ccccc3)OB(O)C[C@@H]2n2c(=O)n(-c3ccccc3)c(=O)n2C1; 0.112
CO[C@H]1COC(=O)[C@@H]2CCCN2C(=O)CC=C[C@@H](C)[C@H](OC)COC(=O)CC=C[C@@H]1C; -0.256

Input line: Report measured composite z-score; entry is COc1ccc(O[C@H]2C=C[C@@H](c3ccccc3)O[C@@H]2COC(=O)CCC(C)=NOC[C@@H](C)[C@H](OCc2ccccc2)C(C)C)cc1
Output line: -1.1

Input line: Indicate its recorded composite z-score; the molecule in question is Cc1ccc(S(=O)(=O)N[C@@H]2COC(=O)[C@H](C)COC(=O)CC=C[C@H]2C)cc1
Output line: -0.0058

Input line: Please look at this molecule and report its composite z-score: C[C@H](c1ccccc1)N1C(=O)[C@H]2[C@H]3[C@H](O)[C@H](O)CC(=O)[C@@H]3CC[C@H]2C1=O
Output line: 0.433

* * *

# SYSTEM_UNDER_TEST: Follistatin-related protein 3 (Homo sapiens)
# ASSAY_COMMENT: FSTL3 binders on small-molecule microarrays, primary screen, biochemical, small-molecule microarray, 635 nm fluorescence (AID 1105);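 note: score merges emission near 667 nm and signal to noise per printed spot across three slides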
# COND: FSTL3 binding, higher = more signal
Some molecules, each annotated with its measured composite z-score.
Response field accepts a number only; no unit should be typed.

Worked examples, 2 molecules total:
NCCCCCNC(=O)[C@@H]1C[C@@H]2C(=O)N3CCC[C@H]3C(=O)N2[C@@H]1c1cccc(OCCO)c1; 0.984
COCCNC(=O)OCC1CCCC2(CC(OC(=O)NCCc3ccc(F)cc3)CC(CCC(=O)N[C@@H](C)C(=O)OC)O2)O1 (stereo partly drawn); 1.22

Input line: Identify the reported composite z-score for the following entry. C[C@@H]1C=CCC(=O)OC[C@H](C)C(=O)N2CCC[C@H]2C(=O)OC1
Output line: 0.829

* * *

# ASSAY_COMMENT: basal RPMI8226 mitochondrial membrane potential changes, profiling panel, cell-based, JC-1 fluorescence, 24 h, 100 nL compound (AID 1169); note: test concentration not given here
# COND: RPMI8226 myeloma, JC-1 mitochondrial potential fluorescence, higher = more signal
Rule: z-score of -0.2 or more gives TRUE; anything lower gives FALSE.

Use these answered entries as a reference point.
COC(=O)C1=CCC(c2cccc(Cl)c2)O1 (stereo unspecified); FALSE
CN(C)CCCNC(=O)[C@@H]1c2ccccc2C(=O)N(Cc2ccccc2)[C@H]1c1ccc(CO)cc1; TRUE

Input line: Is reported z-score greater than or equal to -0.2 here: CCCNC(=O)[C@@H]1c2ccccc2C(=O)N(Cc2ccccc2Cl)[C@H]1c1ccc(CO)cc1
Output line: TRUE

Input line: Does the reported z-score for C[C@H]1CC[C@@H](C(=O)O)N[C@@H]1c1ccc(C#CCN(C)C)cc1 fall at or above the -0.2 mark?
Output line: FALSE

Input line: Does CCc1cc2c(nc1CC)CCN(CCC(C)=NOC[C@@H](O)[C@H]1O[C@@H]3OC(C)(C)O[C@@H]3[C@H]1O)C2 have a reported z-score of at least -0.2?
Output line: TRUE

Input line: Given O=C1NC(=O)C2C1C=CC(C(O)Cc1ccccc1)N2Nc1ccccn1 (stereo unspecified) , state whether its z-score is at least -0.2.
Output line: TRUE

Input line: Hello, I need to know if CC(CCN1CCCCc2nc(C)c(C)cc21)=NOC(C)CN1CCCCc2nc(C)c(C)cc21 (stereo unspecified) has measured z-score not below -0.2. Thanks!
Output line: TRUE

Input line: hey, is z-score for this one >= -0.2? COC(=O)[C@@]1(Cc2ccccc2)[C@H]2c3cc(C(=O)N4CCCC4)n(Cc4ccccn4)c3C[C@H]2CN1C(=O)c1ccccc1
Output line: TRUE

* * *

# ASSAY_COMMENT: FRG1 promoter luciferase signal modulators, primary screen, FRG1 inhibition for FSHD, cell-based, C2C12 myotubes, firefly/Renilla luciferase, luminescence (AID 1084)
# COND: higher = more signal, called active from +8 up or from −8 down
As shown below, each of these compounds has a reported z-score value.
Please reply with the value in numeric form only.

CC1(C)OCC(C(O)C2=CCCCC2=O)CO1 (configuration not stated); 0.119

Input line: Please report z-score for the following compound: C#CCCCON=C1C[C@@H](O)[C@@H](O)[C@@H]2[C@@H]3C(=O)N(Cc4ccccc4)C(=O)[C@@H]3CC[C@H]12
Output line: -0.0765

Input line: For CO[C@H]1COC(=O)[C@H](C)COC(=O)CC=C[C@@H](C)[C@H](OC)COC(=O)CC=C[C@@H]1C , write its z-score.
Output line: 0.847

* * *

# SYSTEM_UNDER_TEST: NADPH oxidase 4 (Homo sapiens) (UniProt Q9NPH5)
# Sequence (Q9NPH5 whole entry, looked up): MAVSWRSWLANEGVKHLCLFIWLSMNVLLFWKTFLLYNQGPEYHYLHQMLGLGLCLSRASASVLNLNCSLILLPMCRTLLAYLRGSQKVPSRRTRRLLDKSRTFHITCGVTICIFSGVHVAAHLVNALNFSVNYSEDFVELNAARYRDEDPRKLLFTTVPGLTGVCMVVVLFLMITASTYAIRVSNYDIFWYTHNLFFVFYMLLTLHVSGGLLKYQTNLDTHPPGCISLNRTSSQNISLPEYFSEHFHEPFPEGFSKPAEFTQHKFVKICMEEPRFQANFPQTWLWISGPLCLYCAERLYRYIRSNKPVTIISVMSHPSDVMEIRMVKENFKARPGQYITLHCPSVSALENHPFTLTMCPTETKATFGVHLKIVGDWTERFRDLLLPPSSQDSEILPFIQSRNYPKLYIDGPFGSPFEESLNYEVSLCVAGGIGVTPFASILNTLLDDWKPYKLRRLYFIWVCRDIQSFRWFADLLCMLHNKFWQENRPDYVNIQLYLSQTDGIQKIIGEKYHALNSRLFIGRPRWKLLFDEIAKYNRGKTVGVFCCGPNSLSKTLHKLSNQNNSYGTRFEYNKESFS
# ASSAY_COMMENT: NOX4-dependent H2O2 signal modulators, primary screen, NOX inhibitor project, cell-based, HEK293-NOX4, tetracycline-induced, Amplex Red fluorescence (AID 1160)
# COND: 45 min, higher = more signal, called active from +8 up or from −8 down
QUANTITY_MEASURED: z-score
Kindly provide the number alone.

CCOC(=O)C[C@H]1[C@H](OC(=O)c2ccc(C(=O)c3ccccc3)cc2)[C@@H](NC(=O)c2ccc(-c3ccccc3)cc2)c2cc(OCCCO)ccc2N1C(=O)c1ccc2ccccc2n1; 0.424
CC(CCN1CCc2nc(-c3ccccc3)c(-c3ccccc3)cc2C1)=NOC[C@@H](C)[C@H](OCc1ccccc1)C(C)C; -1.74

Kindly consider the entry below.
Input line: Return z-score for the following compound: COc1ccc(O[C@H]2C=C[C@@H](c3ccccc3)O[C@@H]2COC(=O)CCC(C)=NOC(C)CN2CCCCc3nc(C)c(C)cc32)cc1 (stereo partly drawn)
Output line: -0.369

* * *

# System: Human papillomavirus type 1a protein E7 (residues 44-93)
# ASSAY_COMMENT: HPV1a E7 fragment binders on microarrays, primary screen, biochemical, small-molecule microarray, residues 44-93, 635 nm fluorescence (AID 1108);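 note: E7 fragment applied at 1 µg/mL in TBST for 1 h at 4 C; score combines spot fluorescence with its signal to noise ratio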
# COND: small-molecule microarray binding, fluorescence 635 nm; higher = more signal
# reported composite z-score; entries follow

Worked examples, 6 compounds total:
C=CCN1C(=O)[C@]2(O[C@H](CCn3cc(CCO)nn3)[C@@H]([Si](C)(C)c3ccc(OC)cc3)[C@@H]2C)c2cc(N3CCOC3=O)ccc21; 1.07
CCOC(=O)CCN1C(=O)[C@H]2[C@H]3[C@H](O)[C@H](O)CC(=NOC[C@@H](O)COCc4ccco4)[C@@H]3CC[C@H]2C1=O; 0.201
NC(=O)NCC#Cc1ccc2c(c1)[C@]1(C(=O)N2)[C@H](c2ccc(O)cc2)N2[C@H](c3ccccc3)[C@H](c3ccccc3)OC(=O)[C@H]2[C@@H]1C(=O)N1CCCCCCC1; 1.19
CCN1C(=O)[C@H]2[C@H]3[C@H](O)[C@H](O)CC(=NOCc4ccccc4)[C@@H]3CC[C@H]2C1=O; 0.515
CCCNC(=O)OC[C@H]1O[C@H](CCON=CC[C@@H]2C=C[C@H](OC(C)=O)[C@@H](COC(C)=O)O2)C=C[C@@H]1Oc1ccc(OC)cc1; 0.791
COc1ccccc1CN1C(=O)c2ccccc2[C@@H](C(=O)NCC(F)(F)F)[C@@H]1c1ccc(CO)cc1; 1.44

Input line: Note composite z-score for the compound shown: CO[C@H]1O[C@H](CO)[C@@H](OC(=O)Nc2ccc3c(c2)OCO3)[C@H](OC(=O)Nc2ccccc2-c2ccccc2)[C@@H]1OC(=O)Nc1ccccc1-c1ccccc1
Output line: 1.36

Input line: Tell us which composite z-score value is on record for CCCNC(=O)[C@@H]1c2ccccc2C(=O)N(Cc2ccccc2Cl)[C@H]1c1ccc(CO)cc1
Output line: 1.22

Input line: Look up and report measured composite z-score for this entry: CCN1C(=O)[C@H]2[C@H]3[C@H](O)[C@H](O)CC(=NOC(C)CN4CCCCc5nc(C)c(C)cc54)[C@@H]3CC[C@H]2C1=O (some centres undefined)
Output line: -0.504

Input line: Please look at this compound and report its composite z-score: C[C@@H]1C=CCC(=O)OC[C@H](C)C(=O)OC[C@H]2O[C@H]1C=C[C@H]2O
Output line: 0.0717

Input line: Provide measured composite z-score value, entry: C[C@H]1CC[C@@H](C(=O)O)N[C@@H]1c1ccc(C#CCN(C)C)cc1
Output line: -1.64

Input line: Fill in composite z-score for record O=C1O[C@@H](c2ccccc2)[C@@H](c2ccccc2)N2[C@@H](c3ccccc3OCCO)[C@]3(C(=O)Nc4ccc(C#CCCO)cc43)[C@@H](C(=O)O)[C@H]12
Output line: 1.42

Input line: Write down composite z-score measured for item C[C@H](c1ccccc1)N1C(=O)[C@H]2[C@@H]3C(=CC[C@H]2C1=O)C(=O)[C@H]1O[C@H]1[C@H]3O
Output line: -0.546

Input line: Give reported composite z-score value for O=C1O[C@@H](c2ccccc2)[C@@H](c2ccccc2)N2[C@@H](c3ccc(O)cc3)[C@]3(C(=O)Nc4ccccc43)[C@@H](C(=O)O)[C@H]12
Output line: 1.02
